- system-tested: FhCL1 (Fasciola hepatica, UniProt Q7JNQ9)
- Construct: gene CL1
- Sequence (Q7JNQ9 108-326): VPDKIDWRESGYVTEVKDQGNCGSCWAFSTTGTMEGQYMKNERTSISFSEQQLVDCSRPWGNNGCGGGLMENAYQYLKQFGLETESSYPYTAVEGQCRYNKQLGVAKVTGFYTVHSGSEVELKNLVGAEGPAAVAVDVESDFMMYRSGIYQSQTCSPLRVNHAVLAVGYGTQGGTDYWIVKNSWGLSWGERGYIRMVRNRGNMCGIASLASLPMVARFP
- test-method-notes: biochemical
- Parameters: fluorogenic peptide-AMC hydrolysis (Z-VLK-AMC FhCL1, Tos-GPR-AMC FhCL3), initial rates, 5 min preincubation
measured-endpoint: inhibition at 10 µM (%)

[[record]]
compound = "O=C(/C=C/c1ccccn1)c1ccccc1O [C22]"
system_tested = "FhCL1 (Fasciola hepatica, UniProt Q7JNQ9)"
measured = 54

[[record]]
compound = "COc1ccc(-c2cc(=O)c3ccccc3o2)cc1 [C39]"
system_tested = "FhCL1 (Fasciola hepatica, UniProt Q7JNQ9)"
measured = 20

[[record]]
compound = "O=C(/C=C/c1ccco1)c1ccccc1O [C23]"
system_tested = "FhCL1 (Fasciola hepatica, UniProt Q7JNQ9)"
measured = 57

[[record]]
compound = "O=C(/C=C/c1ccc2ccccc2c1)c1c(O)ccc2ccccc12 [C35]"
system_tested = "FhCL1 (Fasciola hepatica, UniProt Q7JNQ9)"
measured = 67

[[record]]
compound = "O=C(/C=C/c1cccc2ccccc12)c1ccccc1O [C32]"
system_tested = "FhCL1 (Fasciola hepatica, UniProt Q7JNQ9)"
measured = 42


[1] O=C(/C=C/c1ccc2ccccc2c1)c1ccccc1 [C30]
[2] O=C(/C=C/c1cccc2ccccc12)c1ccccc1 [C28]
Task: Pick one: 1 or 2 . Which one has the lower reported inhibition at 10 µM? Identify your pick by its label.
Output: 2
(2: 38%, 1: 62%)

[P] O=c1cc(-c2ccccc2)oc2ccccc12 [C36]
[Q] O=c1cc(-c2ccc(Cl)cc2)oc2ccccc12 [C37]
[R] O=C(CC(CC(=O)c1ccccc1)c1cccc2ccccc12)c1ccccc1 [C29]
[S] O=C(/C=C/c1ccc2ccccc2c1)c1ccccc1O [C31]
Task: Give the ascending ranking of the items by reported inhibition at 10 µM. Note for the reader: the ranking is given by listing the labels in the order requested.
Output: Q, P, R, S

---

- system-tested: FhCL3 (Fasciola hepatica)
- Construct: gene CL3
- Sequence (B3TM67 88-306): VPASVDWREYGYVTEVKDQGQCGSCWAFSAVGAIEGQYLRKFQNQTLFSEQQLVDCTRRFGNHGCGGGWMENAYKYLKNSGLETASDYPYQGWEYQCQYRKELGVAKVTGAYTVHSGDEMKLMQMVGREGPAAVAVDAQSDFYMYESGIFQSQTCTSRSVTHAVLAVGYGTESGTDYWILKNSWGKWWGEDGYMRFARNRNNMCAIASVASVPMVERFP
- test-method-notes: biochemical
- Parameters: fluorogenic peptide-AMC hydrolysis (Z-VLK-AMC FhCL1, Tos-GPR-AMC FhCL3), initial rates, 5 min preincubation
- condition-description: read-out: % inh. FhCL3
- Protocol: A 10 mM stock of each evaluated compound was prepared in dimethylsulfoxide (DMSO). Enzyme activity assays were conducted to evaluate the inhibitory capacity of the different compounds. […] Enzyme activity was measured by the increase in AMC fluorescence as peptide substrates were hydrolyzed (Z-VLK-AMC for FhCL1 and Tos-GPR-AMC for FhCL3) at an excitation wavelength of 340 nm and emission wavelength of 440 nm using a spectrofluorometer (Varioskan Thermo). […]
measured-endpoint: inhibition at 10 µM (%)

Some solved entries appear below for comparison.
[[record]]
line_notation = "O=C(/C=C/c1ccc2ccccc2c1)c1ccccc1O"
measured = 41

[[record]]
line_notation = "O=C(CC(CC(=O)c1ccccc1)c1cccc2ccccc12)c1ccccc1"
measured = 27

[[record]]
line_notation = "O=C(/C=C/c1ccc2ccccc2c1)c1ccccc1"
measured = 38

[[record]]
line_notation = "O=C(/C=C/c1cccc2ccccc12)c1ccccc1O"
measured = 32

[[record]]
line_notation = "O=c1cc(-c2ccc(Cl)cc2)oc2ccccc12"
measured = 17

[[record]]
line_notation = "O=C(/C=C/c1ccco1)c1ccccc1O"
measured = 4

[[record]]
line_notation = "COc1ccc(-c2cc(=O)c3ccccc3o2)cc1"
measured = 0

[[record]]
line_notation = "O=c1cc(-c2ccc(Br)cc2)oc2ccccc12"
measured = 19

[[record]]
line_notation = "O=C(/C=C/c1cccc2ccccc12)c1ccccc1"
measured = 39

[[record]]
line_notation = "O=C(/C=C/c1ccc2ccccc2c1)c1ccc2ccccc2c1O"
measured = 29


[1] O=c1cc(-c2ccccc2)oc2ccccc12
[2] O=C(/C=C/c1ccccn1)c1ccccc1O
Task: Sort 1 and 2 by inhibition at 10 µM descending and give the first. Identify your pick by its label.
Output: 1
